Assay: Intravenous and intraduodenal bioavailability of zanamivir from three formulations (Example 5)
Details: male, Sprague-Dawley, rat, in vivo, 1.5 mg/animal, Plasma concentration, ID 1.5 mg/animal, Glycerol 50 µL; 0.83 hr; mean
assayReadout: concentration at 0.83 hr (ng/mL)

* CC(=O)NC1C(NC(=N)N)C=C(C(=O)O)OC1C(O)C(O)CO (stereo not shown) [Zanamivir] | 102

###

Assay: Intravenous and intraduodenal (bolus) bioavailability of zanamivir from Capmul MCM L8 25, 50, 75 µL (Example 7)
Details: male, Sprague-Dawley, rat, in vivo, iv, 1.5 mg, CL, IV 1.5 mg/animal, Normal Saline, Ex.7; mean
assayReadout: clearance (mL/min/kg)

* CC(=O)NC1C(NC(=N)N)C=C(C(=O)O)OC1C(O)C(O)CO (stereo not shown) | 10.2

###

Assay: Intravenous and intraduodenal (bolus) bioavailability of zanamivir from Capmul MCM L8 25, 50, 75 µL (Example 7)
Conditions: male, Sprague-Dawley, rat, in vivo, 1.5 mg/animal, Plasma concentration, intraduodenal bolus, 75 μL Capmul MCM L8; 2.0 hr; rat 964
assayReadout: concentration at 2 hr (ng/mL)

• CC(=O)NC1C(NC(=N)N)C=C(C(=O)O)OC1C(O)C(O)CO (stereo not shown) = 121

###

Experiment: Intravenous and intraduodenal (bolus) bioavailability of zanamivir from Capmul MCM L8 25, 50, 75 µL (Example 7)
Conditions: male, Sprague-Dawley, rat, in vivo, 1.5 mg/animal, Plasma concentration, ID bolus 1.5 mg/animal, 25 µL Capmul MCM L8; 2.0 hr; mean
assayReadout: concentration at 2 hr (ng/mL)

- CC(=O)NC1C(NC(=N)N)C=C(C(=O)O)OC1C(O)C(O)CO (stereo not shown): 71.9

###

Experiment: Intravenous and intraduodenal bioavailability of zanamivir from three formulations (Example 5)
Settings: male, Sprague-Dawley, rat, in vivo, 1.5 mg/animal, Plasma concentration, ID 1.5 mg/animal, Capmul MCM L8 50 µL, Ex.5; 2.0 hr; mean
assayReadout: concentration at 2 hr (ng/mL)

- CC(=O)NC1C(NC(=N)N)C=C(C(=O)O)OC1C(O)C(O)CO (stereo not shown): 274

###

Test: Intraduodenal bioavailability of zanamivir from glycerol and PBS formulations, enhancer pre-dose (Example 6)
Conditions: male, Sprague-Dawley, rat, in vivo, 1.5 mg, tmax (second line so headed, Table 10), ID 1.5 mg/animal, 150 µL Glycerol; individual rats
assayReadout: Tmax (h)

* CC(=O)NC1C(NC(=N)N)C=C(C(=O)O)OC1C(O)C(O)CO (stereo not shown) [Zanamivir] | 2.09

###

Assay: Intravenous and intraduodenal (bolus) bioavailability of zanamivir from Capmul MCM L8 25, 50, 75 µL (Example 7)
Details: male, Sprague-Dawley, rat, in vivo, 1.5 mg/animal, Plasma concentration, ID bolus 1.5 mg/animal, 50 µL Capmul MCM L8, Ex.7; 1.0 hr; individual rats
assayReadout: concentration at 1 hr (ng/mL)

• CC(=O)NC1C(NC(=N)N)C=C(C(=O)O)OC1C(O)C(O)CO (stereo not shown) = 695

###

Experiment: in vivo
Conditions: male, Sprague-Dawley, rat, in vivo, 1.5 mg, overall percent bioavailability
assayReadout: bioavailability

* CC(=O)NC1C(NC(=N)N)C=C(C(=O)O)OC1C(O)C(O)CO (stereo not shown) | 25%

###

Assay: Intravenous and intraduodenal (bolus) bioavailability of zanamivir from Capmul MCM L8 25, 50, 75 µL (Example 7)
Conditions: male, Sprague-Dawley, rat, in vivo, 1.5 mg/animal, Plasma concentration, ID bolus 1.5 mg/animal, 50 µL Capmul MCM L8, Ex.7; 0.25 hr; individual rats
assayReadout: concentration at 0.25 hr (ng/mL)

* CC(=O)NC1C(NC(=N)N)C=C(C(=O)O)OC1C(O)C(O)CO (stereo not shown) [Zanamivir] | 2060
